# Measurement Protocol: PSAC antagonists in infected red cells, primary screen, cell-based, P. falciparum Indochina, OD700, 1 h (AID 1154)
# Test Parameters: P. falciparum Indochina infected RBC osmotic lysis, higher = more signal, called active from +8 up or from −8 down
Active and inactive are the calls of the source.
Attribute: z-score

| Compound | z-score |
| --- | --- |
| COc1ccc([Si](C)(C)[C@H]2[C@H](CC(=O)N(CCO)Cc3ccccc3)O[C@@]3(C(=O)N(Cc4ccc(N5C(=O)c6cccc7cccc5c67)cc4)c4ccccc43)[C@@H]2C)cc1 | 15.2 (active) |
| COC(=O)C(CC#Cc1ccc2c(c1)[C@]1(C(=O)N2)[C@H](c2ccc(OCCO)cc2)N2[C@H](c3ccccc3)[C@H](c3ccccc3)OC(=O)[C@H]2[C@@H]1C(N)=O)C(=O)OC | 3.9 (inactive) |
| COC(=O)[C@@]1(Cc2ccc(F)cc2)[C@@H]2C(=CC(=O)[C@H]2CC(=O)C(=O)N2CCCC2)CN1C(=O)c1ccccc1 | 3.94 (inactive) |
| CC(C)c1ccc(NN2C(C(O)C3CCCCC3)C=CC3C(=O)N(c4ccccc4)C(=O)C32)cc1 (stereo not given) | 3.29 (inactive) |
| CCOC(=O)C1=CCC(c2cccn2C(=O)OC(C)(C)C)N(S(=O)(=O)c2ccc(C)cc2)C1 (stereo not given) | 7.3 (inactive) |
| CC(C)C(=C=CC[C@H](O)c1cccc(OCCO)c1)C[C@H](O)c1ccccn1 | 7.72 (inactive) |
| CC[C@H]1C2=C3C(CC[C@H]4C(OCc5ccc(F)cc5C(F)(F)F)OC[C@](C)([C@@H]34)N(C(=O)OC(C)(C)C)C2)C(COC(C)=O)C1COC(C)=O (stereo not given in full) | 0.408 (inactive) |
| Cc1ccc(S[C@]2(C(=O)NC(C)C)CC(=O)N(Cc3ccccc3)[C@@H]2c2ccc(CO)cc2I)cc1 | 5.59 (inactive) |
| CC(C)(C)OC(=O)CC[C@@]1(C(=O)N2CCOCC2)N=C(c2ccc(OCCCO)cc2)O[C@@H]1c1ccccc1CN=[N+]=[N-] | 27 (active) |
| O=C(NC1CC1)[C@@H]1c2ccccc2C(=O)N(C2CCCCC2)[C@H]1c1ccc(CO)cc1 | 1.4 (inactive) |
| Cc1ccc(S(=O)(=O)N2[C@@H](c3ccccc3)C(C(=O)O)=CC[C@H]2c2ccc(F)cc2)cc1 | 2.05 (inactive) |
| COc1ccc(C(O)C2C=CC3C(=O)N(c4ccccc4)C(=O)C3N2Nc2ccccc2F)c2ccccc12 (stereo not given) | 3.82 (inactive) |
| COC(=O)[C@]1(Cc2ccccc2N=[N+]=[N-])N=C(c2ccc(OCCCO)cc2)O[C@@H]1c1ccccc1CN=[N+]=[N-] | 22.2 (active) |
| N#Cc1ccc(NN2C(C(O)c3ccc(B(O)O)cc3)C=CC3CN(c4ccccc4)C(=O)C32)cc1 (stereo not given) | 24.4 (active) |
| O=C/C=C/c1ccc(-c2ccccc2)cc1 | 2.39 (inactive) |

###

# Measurement Protocol: PSAC antagonists in infected red cells, primary screen, cell-based, P. falciparum Indochina, OD700, 18 h (AID 1157)
# Test Parameters: P. falciparum Indochina infected erythrocytes, osmotic lysis OD700, 18 h; higher = more signal, called active from +8 up or from −8 down
I would appreciate it if you labelled entries Condition met when z-score is 0.7 or higher, otherwise Condition not met.

| Compound | Classification |
| --- | --- |
| O=C1NC(=O)C2C1C=CC(C(O)C(c1ccccc1)c1ccccc1)N2Nc1ccccn1 (configuration not stated) | Condition met |
| NCCCCCCNC(=O)[C@@H]1C[C@@H]2C(=O)NCC(=O)N2[C@@H]1c1cccc(OCCO)c1 | Condition not met |
| CC(C)C[C@@H]1NC(=O)[C@@H]2C[C@H](C(=O)NCCCCCNC(=O)CS)[C@H](c3ccc(O)cc3)N2C1=O | Condition not met |
| O=C1O[C@H](c2ccccc2)[C@H](c2ccccc2)N2[C@H]1[C@@H](C(=O)Nc1nc3ccccc3s1)[C@]1(C(=O)Nc3ccccc31)[C@H]2c1ccccc1OCCO | Condition met |
| COC(=O)[C@@]1(Cc2ccc(F)cc2)[C@@H]2C(=CC(=O)[C@H]2CC(=O)C(=O)N2CCCC2)CN1C(=O)c1ccccc1 | Condition not met |
| C=CC[C@]1(C(=O)NCCN2CCOCC2)N=C(c2ccc(OCCCO)cc2)O[C@H]1c1ccccc1 | Condition not met |
